Assay method text: Pharmacokinetic study of 5 compounds in rat plasma after oral administration of Zuogui Pill extract (HPLC-MS/MS, noncompartmental analysis)
Type: in vivo, Female Sprague-Dawley rats
Study conditions: female, Sprague-Dawley, rat, po, 1.5 mL/100 g, osteoporotic rats with kidney-yang-deficiency, oral Zuogui Pill extract 1.5 mL/100 g, n = 6, read-out: MRT0–∞

Compound: OCC1=C[C@@H](O)[C@@H]2C=CO[C@@H](O[C@@H]3O[C@H](CO)[C@@H](O)[C@H](O)[C@H]3O)[C@H]12
MRT inf: 11.7 h
//
Compound: O=Cc1ccc(O)c(O)c1
MRT inf: 3.5 h
//
Compound: O=C(/C=C/c1ccc(O)c(O)c1)O[C@@H]1C[C@](O)(C(=O)O)C[C@@H](O)[C@H]1O
MRT inf: 6.56 h
//
Compound: COC(=O)C1=CO[C@@H](O[C@@H]2O[C@H](CO)[C@@H](O)[C@H](O)[C@H]2O)[C@@H]2[C@H](C)O[C@@H](O)C[C@H]12 [Morroniside, morroniside]
MRT inf: 5.03 h
//
Compound: COC(=O)C1=CO[C@@H](O[C@@H]2O[C@H](CO)[C@@H](O)[C@H](O)[C@H]2O)[C@@H]2[C@@H](C)[C@@H](O)C[C@H]12
MRT inf: 6.62 h

----------
Assay method text: Stability of analytes in rat plasma (QC samples) under storage conditions
Study conditions: high QC (800, 16000, 3200, 400, 40 ng/mL in the same order), n = 5
Readout kind: Stability, Autosampler at 4°C for 24 h, Mean

Molecule: O=C(/C=C/c1ccc(O)c(O)c1)O[C@@H]1C[C@](O)(C(=O)O)C[C@@H](O)[C@H]1O [Chlorogenic acid, chlorogenic acid]
Value reported: 87.3%
--
Molecule: OCC1=C[C@@H](O)[C@@H]2C=CO[C@@H](O[C@@H]3O[C@H](CO)[C@@H](O)[C@H](O)[C@H]3O)[C@H]12 [Aucubin, aucubin]
Value reported: 90.2%
--
Molecule: COC(=O)C1=CO[C@@H](O[C@@H]2O[C@H](CO)[C@@H](O)[C@H](O)[C@H]2O)[C@@H]2[C@H](C)O[C@@H](O)C[C@H]12 [Morroniside, morroniside]
Value reported: 95.0%
--
Molecule: COC(=O)C1=CO[C@@H](O[C@@H]2O[C@H](CO)[C@@H](O)[C@H](O)[C@H]2O)[C@@H]2[C@@H](C)[C@@H](O)C[C@H]12 [Loganin, loganin]
Value reported: 84.4%
--
Molecule: O=Cc1ccc(O)c(O)c1 [Protocatechuic aldehyde, protocatechuic aldehyde]
Value reported: 85.9%

----------
Assay method text: Pharmacokinetic study of 5 compounds in rat plasma after oral administration of Zuogui Pill extract (HPLC-MS/MS, noncompartmental analysis)
Assay type: in vivo, Female Sprague-Dawley rats
Study conditions: female, Sprague-Dawley, rat, po, 1.5 mL/100 g, osteoporotic rats with kidney-yang-deficiency, oral Zuogui Pill extract 1.5 mL/100 g, n = 6
Readout kind: half-life (h)

Compound: COC(=O)C1=CO[C@@H](O[C@@H]2O[C@H](CO)[C@@H](O)[C@H](O)[C@H]2O)[C@@H]2[C@@H](C)[C@@H](O)C[C@H]12
Readout kind: half-life
Value reported: 5.62

Compound: COC(=O)C1=CO[C@@H](O[C@@H]2O[C@H](CO)[C@@H](O)[C@H](O)[C@H]2O)[C@@H]2[C@H](C)O[C@@H](O)C[C@H]12 [Morroniside, morroniside]
Readout kind: half-life
Value reported: 3.83

Compound: O=Cc1ccc(O)c(O)c1
Readout kind: half-life
Value reported: 2.09

Compound: OCC1=C[C@@H](O)[C@@H]2C=CO[C@@H](O[C@@H]3O[C@H](CO)[C@@H](O)[C@H](O)[C@H]3O)[C@H]12
Readout kind: half-life
Value reported: 7.4
